- ASSAY_METHOD_TEXT: Oral bioavailability in rat
- Type: ADME, organism-based
- CONDITIONS_USED: in vivo
MEASUREMENT_NAME: bioavailability (%)
# unit: % | format: bare number

Challenge: State its bioavailability: CCc1nc2ccccc2n1-c1nc(N2CCOCC2)c2nc(CN3CCC(C(C)(C)O)CC3)n(C)c2n1
Response given: 92

---

- ASSAY_METHOD_TEXT: Oral bioavailability in dog
- Type: ADME, organism-based, Canis lupus familiaris
- CONDITIONS_USED: in vivo
MEASUREMENT_NAME: bioavailability (%)
# unit: % | format: bare number

Challenge: State its bioavailability: CCc1nc2ccccc2n1-c1nc(N2CCOCC2)c2nc(CN3CC(C4CCOCC4)C3)n(C)c2n1
Response given: 56

---

- ASSAY_METHOD_TEXT: Half life in dog
- Assay type: ADME, organism-based, Canis lupus familiaris
- CONDITIONS_USED: in vivo
half-life values for the compounds below.
# unit: h | format: bare number

Challenge: State its half-life: CCc1nc2ccccc2n1-c1nc(N2CCOCC2)c2nc(CN3CC(C4CCOCC4)C3)n(C)c2n1
Response given: 3.6

Further cases:
Challenge: State its half-life: CCc1nc2ccccc2n1-c1nc(N2CCOCC2)c2nc(CN3CCC(C(C)(C)O)CC3)n(C)c2n1
Response given: 6.4

---

- ASSAY_METHOD_TEXT: Clearance in rat
- Assay type: ADME, organism-based
- CONDITIONS_USED: in vivo
clearance values for the molecules below.
# unit: mL/min/kg | format: bare number

Challenge: State its clearance: CCc1nc2ccccc2n1-c1nc(N2CCOCC2)c2nc(CN3CCC(C(C)(C)O)CC3)n(C)c2n1
Response given: 19

// next entry
Challenge: State its clearance: CCc1nc2ccccc2n1-c1nc(N2CCOCC2)c2nc(CN3CC(C4CCOCC4)C3)n(C)c2n1
Response given: 34

---

- ASSAY_METHOD_TEXT: Volume of distribution at steady state in dog
- Assay type: ADME, organism-based, Canis lupus familiaris
- CONDITIONS_USED: in vivo, read-out: Vdss
Vd values for the molecules below.
# unit: L/kg | format: bare number

Challenge: State its Vd: CCc1nc2ccccc2n1-c1nc(N2CCOCC2)c2nc(CN3CCC(C(C)(C)O)CC3)n(C)c2n1
Response given: 2

Challenge: State its Vd: CCc1nc2ccccc2n1-c1nc(N2CCOCC2)c2nc(CN3CC(C4CCOCC4)C3)n(C)c2n1
Response given: 6.5

---

- ASSAY_METHOD_TEXT: Permeability across MDCK cells
- Type: ADME, cell-based, Canis lupus familiaris
- CONDITIONS_USED: dog
MEASUREMENT_NAME: Papp

Challenge: State its Papp: CCc1nc2ccccc2n1-c1nc(N2CCOCC2)c2nc(CN3CC(C4CCOCC4)C3)n(C)c2n1
Response given: 16 ×10⁻⁶ cm/s

---

- ASSAY_METHOD_TEXT: Solubility in aqueous solution at pH 6.5
- Format: physicochemical
MEASUREMENT_NAME: solubility

Challenge: State its solubility: CCc1nc2ccccc2n1-c1nc(N2CCOCC2)c2nc(CN3CC(C4CCOCC4)C3)n(C)c2n1
Response given: 338 µg/mL

---

- ASSAY_METHOD_TEXT: Clearance in dog
- Format: ADME, organism-based, Canis lupus familiaris
- CONDITIONS_USED: in vivo
MEASUREMENT_NAME: clearance (L/h/kg)
# unit: L/h/kg | format: bare number

Challenge: State its clearance: CCc1nc2ccccc2n1-c1nc(N2CCOCC2)c2nc(CN3CC(C4CCOCC4)C3)n(C)c2n1
Response given: 1.5

// next entry
Challenge: State its clearance: CCc1nc2ccccc2n1-c1nc(N2CCOCC2)c2nc(CN3CCC(C(C)(C)O)CC3)n(C)c2n1
Response given: 0.3

Origin of measurements: ChEMBL document CHEMBL2169748
